Quick reference: apparent KD of MS2 coat protein of the listed items.
test system: MS2 coat protein; assay: apparent KD of MS2 coat protein; designed switch direction (-1 OFF switch, 1 ON switch): -1; higher = weaker reporter binding; conditions: Eterna round: R95; input ligand: FMN 200 uM
Express the result in nM but write the number alone.

# annotated cases, reported apparent KD of MS2 coat protein shown
CUAGUCCGAGGAUAUAUUAAGUGAAACAUGAGGAUCACCCAUGUUAUUUAAUGGAAAUAAAUAGAAGGCGGACUAG [Mat - Exclusion 5 - JL mod - D56] (puzzle: Exclusion 5)    27.2
GCAAGUUUUUUGUUUUUUAACAUGAGGAUCACCCAUGUAUUUUUAUAGUAUGUGUGAUUAAGAUCUUGUGGUCUUAG [JR_SV3TOV1_Sub101] (puzzle: Sensor v3, turn-off variant 1)    59.1
AGUAGUAGUAUCCGAUCCUACAUGAGGAUCACCCAUGUAGCUAGACGUGCACGCGAUGCUCGUCAGACUACCAGAUG [salish99_TOv1_r3_033] (puzzle: Sensor v3, turn-off variant 1)    195
UUUAAUUUUUUUUUUUUACAAGCUUUUUGCUCGUCUUAUACAUGAGGAUCACCCAUGUAGAUGGGAGGUAAAUUAUC [JMF 75] (puzzle: Sensor v3, turn-off variant 2)    29.1

Below: the item to evaluate.
Req: Determine its reported apparent KD of MS2 coat protein: GCCGGAGCAGGAUAUCUAAUAUAUCACAUGAGGAUCACCCAUGUCCAGCGAAAGCUGGAGGGAGAAGGGCUCUGGC [Fiskers Ex 5 - 22] (puzzle: Exclusion 5)
Resp: 59.7

====

tested on: K4 kissing-loop RNA reporter; assay: apparent KD of K4 kissing-loop reporter; higher = weaker reporter binding; conditions: Eterna round: R107; input ligand: FMN 200 uM;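 note: bound reporter read as fluorescence of individual clusters on recovered sequencing chips by microscopy, with normalized cluster intensities fitted with a binding model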
Binary classification by apparent KD of K4 kissing-loop reporter, with 200 nM as an inclusive lower bound for Y; all other cases are N.

Example entries begin here.
AAGUGAUGUUGUAGUGAUGUUGUGAUGUUGCAGGAUAUAUAGUGAUGUAGAAGGGUAUGUGCAGUGUUCUUAUUUGAGUGUUGAU [zffdmullin]    N
UACUAUAUUCUGUCGUUUUUAUUAGUUUGUCAGGAUAUCGUUUAUUCGAGAAGGGACACUAUCUAGUGAUGUUAGAUAUUUCUUU [JR_Nu3_ExcFMNA_Sub030]    N
GUGGUUUACGUAGGAUAUCGAUGAUGAGUAAAUGGAGUGAUGUUCCGAGAUUGAAUAUGAGAUGAGCGAGAAGGGCGGUUUAUGC [FMN B Same State; Euporia Solution 2]    N
UGACUGGACUGAAGGAGCGGGCGAGACAAAGUCUCGAACUCUUAGUGAUGUUAGGAAAUAACCCAGGUAGGUCGCAGUCUAGUCU    Y
GCUAAGUGAUGUUUAUGCCGCCGACCGGAUACCAGCUACUAGGCAAGCCCUUGGCAGCCGCUAUGUGACCGAUCAUUAGUUAUGU [theeternabot_exclusion_KL_Theo_A_6]    Y

Now consider a different sequence.
Req: Check if apparent KD of K4 kissing-loop reporter >= 200 nM (inclusive). Item: ACUGAGCAUGCGGCCGCCACUUCAGAACGUCGCCCAAAGGGCGACGCCUCCAGAGUGAUGUUCUGGAGGACCGGGCAUGUUCAGA [Omei KL Tryp B Exc A v1]
Resp: Y
